Measured IC50, listed per entry for reference.
test system: P. falciparum female gametocytes; assay: P. falciparum Dual Gamete Formation Assay (PfDGFA), female readout (Pfs25-positive female gametes); assay type: cell-based, Plasmodium falciparum NF54; conditions: this study; read-out: Pf DGFA IC50 FEM

{"molecule": "Cc1ccc(S(=O)(=O)N(CCCNCc2cccc(O)c2)c2ccccc2)cc1", "IC50, µM": 7.66}
{"molecule": "COc1ccc2nc(N=C3NC4(c5ccccc5)NC(=Nc5nc6ccc(OC)cc6[nH]5)NC4(c4ccccc4)N3)[nH]c2c1.O=C(O)C(F)(F)F (stereo not drawn)", "IC50, µM": 5.84}
{"molecule": "FC(F)(F)c1cccc(NC(=S)NN=Cc2ccccn2)c1", "IC50, µM": 0.7}
{"molecule": "Cc1cc(Nc2ncc(C#N)c(Nc3ccccc3C(N)=O)n2)ccc1N1CCN(C)CC1.Cl", "IC50, µM": 7.4}
{"molecule": "FC(F)(F)c1ccc2[nH]c(-c3ccc(-c4ccc(CNCCN5CCNCC5)cc4)cc3)nc2c1.O=C(O)C(F)(F)F", "IC50, µM": 6.08}
{"molecule": "Cc1cccc(Nc2nc(N[C@@H]3CCCNC3)nc3cc[nH]c(=O)c23)c1.O=C(O)C(F)(F)F", "IC50, µM": 7.69}
